target: DNA polymerase eta (Homo sapiens) (UniProt Q9Y253); assay: qHTS for Inhibitors of Polymerase Eta; conditions: recombinant Pol eta, fluorescent DNA replication assay; series mostly up to 114 µM
Sequence (Q9Y253 whole entry, looked up): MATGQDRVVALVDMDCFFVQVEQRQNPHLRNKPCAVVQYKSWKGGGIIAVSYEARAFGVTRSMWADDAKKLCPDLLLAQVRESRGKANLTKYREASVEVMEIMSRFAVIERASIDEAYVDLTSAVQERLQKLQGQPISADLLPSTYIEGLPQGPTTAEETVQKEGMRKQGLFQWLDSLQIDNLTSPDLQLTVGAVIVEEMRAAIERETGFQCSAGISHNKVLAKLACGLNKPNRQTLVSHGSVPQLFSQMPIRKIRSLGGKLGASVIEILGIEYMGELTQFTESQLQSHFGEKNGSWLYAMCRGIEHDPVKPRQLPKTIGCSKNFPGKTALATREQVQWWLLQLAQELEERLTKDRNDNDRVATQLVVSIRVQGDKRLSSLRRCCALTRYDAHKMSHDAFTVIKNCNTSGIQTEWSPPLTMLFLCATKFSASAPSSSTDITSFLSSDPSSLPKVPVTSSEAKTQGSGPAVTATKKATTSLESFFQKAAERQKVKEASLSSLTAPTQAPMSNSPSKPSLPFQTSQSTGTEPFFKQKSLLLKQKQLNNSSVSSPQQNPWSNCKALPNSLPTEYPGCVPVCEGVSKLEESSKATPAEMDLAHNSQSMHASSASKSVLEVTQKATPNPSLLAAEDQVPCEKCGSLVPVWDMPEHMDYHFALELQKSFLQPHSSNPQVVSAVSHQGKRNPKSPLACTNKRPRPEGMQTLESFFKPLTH
In all, about 390,000 compounds went through this assay and about 4,700 (1.2%) were called active. Not shown: some 4% with an inconclusive outcome. Calls follow the shape of the dose curve; as a rule, active = well fitted inhibition curve with a large enough effect; inconclusive = small, poorly fitted or top-dose-only effect, or another doubt; inactive = no such curve, though single readings can be large or run the other way. The sample holds actives, similar compounds and a random draw of the others, so the mix is not that of the screen.
Classes used: t for active, f for inactive

# Compound, Class label
measured = [
    ("CCCCn1cc(S(=O)(=O)c2ccc(OCC)cc2)c(=O)c2cc(OC)c(OC)cc21", "f"),
    ("NC(=O)CCN1CCN(S(=O)(=O)/C=C/c2ccccc2)CC1", "f"),
    ("CCc1ccc2nc3sc(C(=O)Nc4nnc(CC)s4)c(N)c3cc2c1", "t"),
    ("Cc1ccc2c(c1)c1c(c(=O)n(-c3ccccc3)c(=O)n1CC(=O)c1ccc(Cl)cc1)n2C", "f"),
    ("COc1cccc(CNS(=O)(=O)c2ccc3c(c2)CC(C)N3C(=O)C2CCC2)c1 (configuration not stated)", "f"),
    ("Cc1oc(-c2ccccc2)nc1Cn1c(SCc2cccc(C(F)(F)F)c2)nc2cccnc21", "f"),
    ("O=C1/C(=C\\c2ccc([N+](=O)[O-])cc2)CS(=O)(=O)C/C1=C/c1ccc([N+](=O)[O-])cc1", "t"),
    ("Cc1ccc(N2NC(=O)/C(=C/C=C/c3ccco3)C2=O)cc1C", "t"),
    ("Cc1cc(C)c(NC(=O)CCc2c(C)nc3c(c(C)nn3C(C)(C)C)c2C)c(C)c1", "f"),
    ("Cc1ccc(-n2c(=O)c3cccnc3n2CC(=O)Nc2ccccc2C(F)(F)F)cc1C", "f"),
    ("COc1ccc(C)cc1N(C)C(=O)c1c(C)oc2ncnc(N3CCOCC3)c12", "f"),
    ("CC1CCCN(c2csc3ccc(F)cc3c2=O)C1 (configuration not stated)", "f"),
    ("CC1(c2ccccc2Cl)NC(=O)N(CC(=O)NC(=O)NCc2ccco2)C1=O (configuration not stated)", "f"),
    ("COc1cc(/C=C/C(=O)OCC(=O)NC(=O)NCc2ccccc2)ccc1OCC#N", "f"),
    ("CC(=O)c1ccc(N2CCN(c3nc4c(S(=O)(=O)c5ccccc5)nnn4c4ccc(Cl)cc34)CC2)cc1", "f"),
    ("CCSC1=C(C#N)C(=O)n2c1cc1c2CCCC1", "t"),
    ("CN(Cc1ccccc1)S(=O)(=O)c1ccc(F)c(C(=O)Nc2cccc(Cl)c2Cl)c1", "f"),
    ("COC(=O)c1ccc(-c2nc3cc(NC(C)=O)ccc3o2)cc1", "f"),
    ("O=C(c1ccccc1)c1ccc(OC(=O)N2CCCC2)cc1", "f"),
    ("COc1ccc(-c2cn3c(C)c(C(=O)Nc4cc(C)cc(C)c4)sc3n2)cc1", "f"),
    ("CCC(=O)N1c2ccc(S(=O)(=O)NCc3ccco3)cc2CC1C (configuration not stated)", "t"),
    ("COc1ccccc1Cc1nc2ccccc2nc1SCC(=O)N1CCCc2ccccc21", "f"),
    ("O=C(CN1CCN(S(=O)(=O)/C=C/c2ccccc2)CC1)NC(=O)NCc1ccco1", "t"),
    ("O=C(CC(c1cccs1)N1Cc2ccccc2C1=O)Nc1ccc(F)cc1F (configuration not stated)", "f"),
    ("CCOc1ccc(N(Cc2ccccc2)C(=O)c2nc(S(C)(=O)=O)ncc2Cl)cc1", "f"),
    ("Cc1nc2nc(SCC(=O)NC3CCC(C)CC3)nn2c(C)c1Cc1ccccc1Cl (configuration not stated)", "f"),
    ("O=C(COc1ccc(Cl)cc1)N(Cc1ccco1)Cc1ccco1", "f"),
    ("C1=C(N2CCOCC2)/C(=C/c2nc3ccccc3[nH]2)CC1", "t"),
    ("CN(C)C(CNC(=O)CCCOc1ccccc1)c1ccco1 (configuration not stated)", "f"),
    ("CCCS(=O)(=O)c1c(Nc2ccccc2C)sc(C(=O)c2ccccc2)c1N", "f"),
    ("CC(C)(C)c1ccc(C(=O)NCC(c2ccco2)S(=O)(=O)c2ccc(F)cc2)cc1 (configuration not stated)", "f"),
    ("COc1cc(NC(=O)c2cc(C3CC3)nc3c2c(C)nn3-c2ccccc2)cc(OC)c1", "f"),
    ("CCc1ccccc1N1C(=O)CN(S(=O)(=O)CC)CC1(C)C(=O)NC1CCCCC1 (configuration not stated)", "f"),
    ("Cc1ccc(C(=O)N/C(=C\\c2ccco2)C(=O)N2CCSCC2)cc1C", "f"),
    ("Cc1ccn2c(=O)nc(SCC(=O)NCc3ccc(F)cc3)nc2c1", "t"),
    ("COC(=O)c1ccc(C(NC(=O)OCc2ccccc2)/C(C)=C/[C@@H](C)C(=O)NCc2ccc(OC)c(OC)c2)cc1 (some centres not stated)", "f"),
    ("COc1ccc(Cn2c(=O)c3oc4ccccc4c3n(CC(=O)Nc3ccc(F)cc3F)c2=O)cc1", "f"),
    ("O=C(COC(=O)c1ccc(Br)o1)NC12CC3CC(CC(C3)C1)C2", "f"),
    ("CC(CNC(=O)c1nnc(Cc2cccc(F)c2)o1)c1ccccc1 (configuration not stated)", "f"),
    ("CC(=O)c1ccc(S(=O)(=O)N2CCC(Oc3ccc(-n4cnnn4)cc3)CC2)cc1", "f"),
    ("Cc1ccccc1CS(=O)(=O)CC1Nc2ccc(C(=O)NCc3ccc(Cl)cc3)cc2NC1=O (configuration not stated)", "f"),
    ("O=Cc1ccc(OCc2cn3ccccc3n2)cc1", "f"),
]
